Experiment: qHTS assay to identify small molecule antagonists of the TGF-beta/Smad signaling pathway - cell viability counter screen (AID 1346824); further: nearly all actives have a fitted effect of over 50% in size
Settings: SBE-bla HEK293T viability, CellTiter-Glo luminescence; series mostly up to 76.8 µM
Results filed as inconclusive are left out. Active and inactive are the calls of the source. The call rests on the fitted dose curve; in most records, active means well fitted cell-killing curve with a large enough effect in the repeat runs; inconclusive means weak or mixed curves; inactive means flat fitted curve, though single readings scatter.
Possible outcomes: y = active, n = inactive

>  <molecule>
CN(C)c1ccc(N)cc1

>  <assignedClass>
n

$$$$
>  <molecule>
CCOP(=S)(OCC)Oc1cc(C)nc(N(CC)CC)n1

>  <assignedClass>
n

$$$$
>  <molecule>
CC(=O)[O][Sn]([c]1ccccc1)([c]1ccccc1)[c]1ccccc1

>  <assignedClass>
y

$$$$
>  <molecule>
CCC1COC(Cn2cncn2)(c2ccc(Cl)cc2Cl)O1 (configuration not stated)

>  <assignedClass>
n

$$$$
>  <molecule>
[C-]1=CC=CC1.[Cl][Zr+2][Cl].c1cc[cH-]c1

>  <assignedClass>
n

$$$$
>  <molecule>
COc1cnc(OC)n2nc(NS(=O)(=O)c3c(OCC(F)F)cccc3C(F)(F)F)nc12

>  <assignedClass>
n

$$$$
>  <molecule>
Clc1ccc(C(Cl)(Cl)Cl)cc1Cl

>  <assignedClass>
n

$$$$
>  <molecule>
CCNS(=O)(=O)C(F)(F)C(F)(F)C(F)(F)C(F)(F)C(F)(F)C(F)(F)C(F)(F)C(F)(F)F

>  <assignedClass>
n

$$$$
>  <molecule>
c1ccc2nc(N3CCNCC3)ccc2c1

>  <assignedClass>
n

$$$$
>  <molecule>
ClC1=C(Cl)[C@]2(Cl)[C@H]3[C@H]([C@@H]4C=C[C@H]3C4)[C@@]1(Cl)C2(Cl)Cl

>  <assignedClass>
n

$$$$
>  <molecule>
CCCCC(CC)COC(=O)OOC(C)(C)C (configuration not stated)

>  <assignedClass>
n

$$$$
>  <molecule>
CNC(=O)O/N=C(\C)C(C)S(C)(=O)=O (configuration not stated)

>  <assignedClass>
n

$$$$
>  <molecule>
CC(Cl)CCl (configuration not stated)

>  <assignedClass>
n

$$$$
>  <molecule>
CC(Cc1ccc2c(c1)OCO2)NO (configuration not stated)

>  <assignedClass>
n

$$$$
>  <molecule>
O=Cc1ccccc1

>  <assignedClass>
n

$$$$
>  <molecule>
COc1ccc2c(c1OC)C(=O)O[C@@H]2[C@H]1c2cc3c(cc2CCN1C)OCO3

>  <assignedClass>
n

$$$$
>  <molecule>
CC(=O)[O-].CC(=O)[O-].CC(=O)[O-].[Cr+3]

>  <assignedClass>
n

$$$$
